Tested on: CCRF-CEM
Experiment: Cytostatic activity against human CEM cells assessed as inhibition of cell proliferation after 72 hrs by coulter counting analysis
Type: functional, cell-based
Settings: Homo sapiens, CCRF-CEM, 72 h
pIC50: −log10 of the molar value.
Lab note: compare pIC50 against 5. Equal or greater, write Criterion met. Smaller, write Criterion not met.

>>> df
                                    molecule                cat
 0  COC(=O)C[C@H](NC(=O)OC(C)(C)C)C(=O)N(C1CC1)C1(C(=O)NCc2ccccc2)CCN(Cc2ccccc2)CC1      Criterion met
 1  CC[C@H](C)[C@H](NC(=O)OCc1ccccc1)C(=O)N(C1CC1)C1(C(=O)NCc2ccccc2)CCN(Cc2ccccc2)CC1  Criterion not met
 2  COC(=O)C[C@H](NC(=O)OC(C)(C)C)C(=O)N(CC(=O)OC)C1(C(=O)NCc2ccccc2)CCN(Cc2ccccc2)CC1  Criterion not met
 3  C=CCOC(=O)N1CCC(C(=O)NCc2ccccc2)(N(Cc2ccccc2)C(=O)[C@H](CC(=O)OC)NC(=O)OC(C)(C)C)CC1  Criterion not met
 4  COC(=O)C[C@H](NC(=O)OCc1ccccc1)C(=O)N(Cc1ccccc1)C1(C(=O)NCc2ccccc2)CCN(Cc2ccccc2)CC1      Criterion met
 5  COC(=O)C[C@H](NC(=O)OCc1ccccc1)C(=O)N(C1CC1)C1(C(=O)NCc2ccccc2)CCN(Cc2ccccc2)CC1      Criterion met
 6  CC(C)(C)NC(=O)C1(N(C(=O)[C@H](Cc2ccccc2)NC(=O)OCc2ccccc2)C2CC2)CCN(C(=O)OC(C)(C)C)CC1  Criterion not met
 7  COC(=O)C[C@H](NC(=O)OC(C)(C)C)C(=O)N(Cc1ccccc1)C1(C(=O)NCc2ccccc2)CCN(Cc2ccccc2)CC1  Criterion not met
 8  COC(=O)C[C@H](NC(=O)OC(C)(C)C)C(=O)N(Cc1ccccc1)C1(C(=O)NC(C)(C)C)CCN(Cc2ccccc2)CC1  Criterion not met
 9  COC(=O)C[C@H](NC(=O)OC(C)(C)C)C(=O)N(Cc1ccccc1)C1(C(=O)NC2CCCCC2)CCN(Cc2ccccc2)CC1  Criterion not met
10  CC(C)(C)OC(=O)N[C@@H](Cc1ccccc1)C(=O)N(Cc1ccccc1)C1(C(=O)NCc2ccccc2)CCN(Cc2ccccc2)CC1      Criterion met
11  CC(C)(C)NC(=O)C1(N(C(=O)[C@H](Cc2ccccc2)NC(=O)OCc2ccccc2)C2CC2)CCN(Cc2ccccc2)CC1      Criterion met
12  CC(C)(C)NC(=O)C1(N(C(=O)[C@H](Cc2ccccc2)NC(=O)OC(C)(C)C)C2CC2)CCN(Cc2ccccc2)CC1  Criterion not met
13  COC(=O)C[C@H](NC(=O)OC(C)(C)C)C(=O)NC1(C(=O)NCc2ccccc2)CCN(Cc2ccccc2)CC1  Criterion not met
14  COC(=O)C[C@H](NC(=O)OC(C)(C)C)C(=O)N(Cc1ccccc1)C1(C(=O)NCc2ccccc2)CCNCC1  Criterion not met
15  CCC(C)N(C(=O)[C@@H](N)CC(=O)OC)C1(C(=O)NCc2ccccc2)CCNCC1 (stereo partly specified)  Criterion not met
